meta.source: ChEMBL document CHEMBL1201861

Provide the recorded IC50 for the entries that follow.
- Tested on: PC-3
- assay.remarks: cells
- Type: functional, cell-based, Homo sapiens
- reported.conditions: Homo sapiens, PC-3
- Description: SANGER: Inhibition of human PC-3 cell growth in a cell viability assay.
Give bare numbers, in µM.

query.smiles: COc1ccc(-c2ccc3c(N4CCOC[C@@H]4C)nc(N4CCOC[C@@H]4C)nc3n2)cc1CO
reported: 0.722

Shift focus to the following entry.
Request body: readout IC50, system PC-3, query Cn1cncc1[C@@](N)(c1ccc(Cl)cc1)c1ccc2c(c1)c(-c1cccc(Cl)c1)cc(=O)n2C . Return the value.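 Note: cell viability assay measuring growth inhibition of PC-3 cells.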
11.3

---

- System: KYSE-270
- assay.remarks: cells
- Type: functional, cell-based, Homo sapiens
- reported.conditions: Homo sapiens, KYSE-270
- Description: SANGER: Inhibition of human KYSE-270 cell growth in a cell viability assay.
Kindly supply the reported IC50 values for the records listed here.
One number for each entry, in µM.

Previously resolved entries follow.
query.smiles: C=CCc1cccc(/C=N/NC(=O)CN2CCN(Cc3ccccc3)CC2)c1O
tested.target: KYSE-270
quantity.unit: µM
IC50: 2.46

query.smiles: COc1ccc(-c2ccc3c(N4CCOC[C@@H]4C)nc(N4CCOC[C@@H]4C)nc3n2)cc1CO
tested.target: KYSE-270
quantity.unit: µM
IC50: 1.57

query.smiles: CCC1=C[C@@H]2CN(C1)Cc1c([nH]c3ccccc13)[C@@](C(=O)OC)(c1cc3c(cc1OC)N(C)[C@H]1[C@@](O)(C(=O)OC)[C@H](OC(C)=O)[C@]4(CC)C=CCN5CC[C@]31[C@@H]54)C2
tested.target: KYSE-270;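 note: cell growth inhibition measured with a viability assay in the human KYSE-270 line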
quantity.unit: µM
IC50: 0.00316

Okay, next one:
IC50 lookup needed for Nc1ccn([C@@H]2O[C@H](CO)[C@@H](O)[C@@H]2O)c(=O)n1 , thanks.
0.849

---

- Tested on: OCI-AML2;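 note: growth inhibition of OCI-AML2 cells, read out with a cell viability assay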
- assay.remarks: cells
- Format: functional, cell-based
- reported.conditions: Homo sapiens
- Description: SANGER: Inhibition of human OCI-AML2 cell growth in a cell viability assay.
test.readout: IC50

Would you mind giving IC50 for every compound in the list below?
1. COc1ccc(C2=N[C@@H](c3ccc(Cl)cc3)[C@@H](c3ccc(Cl)cc3)N2C(=O)N2CCNC(=O)C2)c(OC(C)C)c1 [NUTLIN-3]
2. CN(c1ncccc1CNc1nc(Nc2ccc3c(c2)CC(=O)N3)ncc1C(F)(F)F)S(C)(=O)=O [PF-00562271]
3. CN(C)C/C=C/C(=O)Nc1cc2c(Nc3ccc(F)c(Cl)c3)ncnc2cc1O[C@H]1CCOC1 [AFATINIB]
4. O=c1cc(-c2cccc3c2Sc2ccccc2S3)oc(N2CCOCC2)c1 [KU-55933]
5. O=C(c1cc(Cc2n[nH]c(=O)c3ccccc23)ccc1F)N1CCN(C(=O)C2CC2)CC1 [OLAPARIB]
6. CCC1=C[C@@H]2CN(C1)Cc1c([nH]c3ccccc13)[C@@](C(=O)OC)(c1cc3c(cc1OC)N(C)[C@H]1[C@@](O)(C(=O)OC)[C@H](OC(C)=O)[C@]4(CC)C=CCN5CC[C@]31[C@@H]54)C2 [VINORELBINE]
7. CO[C@H]1C[C@@H]2CC[C@@H](C)[C@@](O)(O2)C(=O)C(=O)N2CCCC[C@H]2C(=O)O[C@H]([C@H](C)C[C@@H]2CC[C@@H](O)[C@H](OC)C2)CC(=O)[C@H](C)/C=C(\C)[C@@H](O)[C@@H](OC)C(=O)[C@H](C)C[C@H](C)/C=C/C=C/C=C/1C [SIROLIMUS]

1: > 8000 nM; 2: > 2560 nM; 3: > 500 nM; 4: > 10000 nM; 5: > 5000 nM; 6: 10.3 nM; 7: > 100 nM

Give IC50 for all compounds that follow.
1. Cn1cc(C2=C(c3ccc(Cl)cc3Cl)C(=O)NC2=O)c2ccccc21 [SB-216763]
2. C=CCNC1=C2C[C@@H](C)C[C@H](OC)[C@H](O)[C@@H](C)/C=C(\C)[C@H](OC(N)=O)[C@@H](OC)/C=C\C=C(/C)C(=O)NC(=CC1=O)C2=O [TANESPIMYCIN]

["> 10000 nM", "654 nM"]
